Origin of the recorded values: paper PMC8593021

Molecular target: hTAS1R2 (Homo sapiens)
Sequence (Q8TE23 20-839): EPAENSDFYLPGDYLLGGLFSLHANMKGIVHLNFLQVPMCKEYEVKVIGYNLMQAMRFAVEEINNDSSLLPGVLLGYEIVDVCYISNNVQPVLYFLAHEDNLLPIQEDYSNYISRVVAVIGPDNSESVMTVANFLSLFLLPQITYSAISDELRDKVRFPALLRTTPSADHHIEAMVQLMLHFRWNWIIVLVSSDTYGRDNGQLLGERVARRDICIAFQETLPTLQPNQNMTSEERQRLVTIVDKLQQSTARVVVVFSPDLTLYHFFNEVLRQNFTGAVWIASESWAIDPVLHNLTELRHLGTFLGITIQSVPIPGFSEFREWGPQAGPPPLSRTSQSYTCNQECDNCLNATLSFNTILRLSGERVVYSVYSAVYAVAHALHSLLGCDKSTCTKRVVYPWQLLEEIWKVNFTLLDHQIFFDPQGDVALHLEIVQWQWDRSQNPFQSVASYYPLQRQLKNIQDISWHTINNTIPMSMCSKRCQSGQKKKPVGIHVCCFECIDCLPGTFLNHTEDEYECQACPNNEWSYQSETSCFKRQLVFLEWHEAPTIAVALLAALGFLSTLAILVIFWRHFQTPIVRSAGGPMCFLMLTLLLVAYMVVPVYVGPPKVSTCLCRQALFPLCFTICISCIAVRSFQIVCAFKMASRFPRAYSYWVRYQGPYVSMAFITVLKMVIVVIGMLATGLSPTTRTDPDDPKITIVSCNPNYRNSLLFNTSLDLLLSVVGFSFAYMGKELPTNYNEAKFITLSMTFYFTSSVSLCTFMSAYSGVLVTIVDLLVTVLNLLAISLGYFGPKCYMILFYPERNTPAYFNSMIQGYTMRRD
Assay: Calcium assay (GCaMP6S) in HEK293T-Gα16gust44 cells transfected with hTAS1R2-FLAG alone
Details: HEK293T-Gα16gust44 cells transiently transfected with GCaMP6S and hTAS1R2-FLAG alone
pEC50: −log10 of the molar value.

molecule: C=C(C)C1CC=C(/C=N/O)CC1 (stereo in doubt)
pEC50: 4.21

----------
Reported EC50 values are given for each entry in this list.
Molecular target: hTAS1R2/hTAS1R3 (Homo sapiens, UniProt Q7RTX0+Q8TE23)
Sequence (Q7RTX0 21-852, one chain of several): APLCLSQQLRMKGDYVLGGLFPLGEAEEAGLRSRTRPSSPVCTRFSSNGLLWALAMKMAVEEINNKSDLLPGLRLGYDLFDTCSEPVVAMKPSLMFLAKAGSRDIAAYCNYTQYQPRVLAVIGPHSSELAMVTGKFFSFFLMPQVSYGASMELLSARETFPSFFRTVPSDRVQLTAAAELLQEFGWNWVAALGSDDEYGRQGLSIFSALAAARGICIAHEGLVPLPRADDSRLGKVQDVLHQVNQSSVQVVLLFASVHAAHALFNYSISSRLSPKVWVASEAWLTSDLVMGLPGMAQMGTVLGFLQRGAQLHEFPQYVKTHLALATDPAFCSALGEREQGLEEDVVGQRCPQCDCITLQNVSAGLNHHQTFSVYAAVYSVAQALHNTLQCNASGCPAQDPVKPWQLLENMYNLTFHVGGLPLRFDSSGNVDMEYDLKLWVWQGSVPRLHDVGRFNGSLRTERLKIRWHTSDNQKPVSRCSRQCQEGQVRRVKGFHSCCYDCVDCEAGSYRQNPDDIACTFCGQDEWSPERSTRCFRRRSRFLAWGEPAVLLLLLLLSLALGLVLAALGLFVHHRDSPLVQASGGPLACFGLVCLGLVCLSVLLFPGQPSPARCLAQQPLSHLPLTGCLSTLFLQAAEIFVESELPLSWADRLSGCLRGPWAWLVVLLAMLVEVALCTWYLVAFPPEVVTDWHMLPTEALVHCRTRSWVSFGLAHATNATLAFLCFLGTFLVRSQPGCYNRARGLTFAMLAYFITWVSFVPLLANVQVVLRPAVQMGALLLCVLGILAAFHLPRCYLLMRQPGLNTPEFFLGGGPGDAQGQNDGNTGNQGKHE
Test: Calcium assay (GCaMP6S) in HEK293T-Gα16gust44 cells transfected with hTAS1R2-FLAG and hTAS1R3-FLAG
Conditions: HEK293T-Gα16gust44 cells transiently transfected with GCaMP6S
property_label: EC50 (µM)

compound: CC1=CC(=O)NS(=O)(=O)O1 [Acesulfame-K, acesulfame-K]
property_label: EC50
units_of_measure: µM
reported: 213
--
compound: C=C(C)C1CC=C(/C=N/O)CC1 (stereo in doubt) [Perillartine, perillartine]
property_label: EC50
units_of_measure: µM
reported: 2.54
--
compound: COC(=O)[C@H](Cc1ccccc1)NC(=O)[C@H](CC(=O)O)NCCC(C)(C)C [Neotame, neotame]
property_label: EC50
units_of_measure: µM
reported: 0.9
--
compound: OC[C@H]1O[C@H](O[C@]2(CCl)O[C@H](CCl)[C@@H](O)[C@@H]2O)[C@H](O)[C@@H](O)[C@H]1Cl [Sucralose, sucralose]
property_label: EC50
units_of_measure: µM
reported: 36
--
compound: O=S(=O)(O)NC1CCCCC1 [Cyclamate-Na, cyclamate-Na]
property_label: EC50
units_of_measure: µM
reported: 767
